Taken from patent US20170334877A1.

- assayProcedure: High temperature test (60° C. incubator)
- Type: physicochemical
- testSettings: 60° C., Day 0; hydrochloride
Counter-ions that a name gives are not always drawn.
measuredProperty: Purity (%)

[[record]]
compound = "Cc1nc(Nc2ccc(F)cc2)nc(N2CCc3ccccc3C2C)c1C (single isomer, unassigned) [revaprazan hydrochloride crystalline form V]"
measuredproperty = "Purity (%)"
valuemeasured = 99.94

[[record]]
compound = "Cc1nc(Nc2ccc(F)cc2)nc(N2CCc3ccccc3C2C)c1C (single isomer, unassigned) [revaprazan hydrochloride crystalline form I]"
measuredproperty = "Purity (%)"
valuemeasured = 99.96

[[record]]
compound = "Cc1nc(Nc2ccc(F)cc2)nc(N2CCc3ccccc3C2C)c1C (single isomer, unassigned) [revaprazan hydrochloride crystalline form II]"
measuredproperty = "Purity (%)"
valuemeasured = 99.94

